Reference source for all entries: PubChem BioAssay (NCATS)

Tested on: Dd2
experiment-description: qHTS profiling for inhibitors of Plasmodium falciparum proliferation (AID 504749); note: nearly all actives have a fitted effect of over 60% in size
run-conditions: P. falciparum in erythrocytes, SYBR Green DNA, 72 h; series mostly up to 28.7 µM
Results filed as inconclusive are left out. Calls of active or inactive are those of the source. Calls come from the whole dose curve; as a rule, active = well fitted inhibition curve with a large enough effect; inconclusive = small, poorly fitted or top-dose-only effect; inactive = flat fitted curve, though single readings scatter.
Permitted responses: T = active, F = inactive

Would you please look over these solved cases?
Test call for this molecule, please: Cc1nc2ccccc2n1Cc1ccc(Cl)cc1
F

Please share the test call associated with CN1CCN(c2cc3c(nn2)Oc2ccccc2N3C)CC1 .
F

Assay result, entry CC(N)C(=O)OC(C)(C)Cc1ccc(Cl)cc1 (centres undefined) — outcome?
T

Next:
Call for entry CCC1C(=O)OCC1Cc1cncn1C (centres undefined) :
F

Call for entry C[S+](CC[C@H](N)C(=O)O)C[C@H]1O[C@@H](n2cnc3c(N)ncnc32)[C@H](O)[C@@H]1O (some centres undefined) :
F

====

experiment-description: qHTS Assay for Identifying Gametocytocidal Compounds (AID 743244);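 note: % is set by controls: 0 for no effect and ±100 for the full control effect; actives lower the fluorescent signal which means gametocytes are killed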
run-conditions: P. falciparum 3D7 stage III-V gametocytes, alamarBlue, 72 h; active compounds read low
Results filed as inconclusive are left out.
# Lookup of reported max response keyed by entry
Numbers only; they are read as %.

For orientation, consider the following solved cases.
Need max response, item CCOc1ccc2nc(S(N)(=O)=O)sc2c1
10.4

Would you mind telling me what max response value was observed for CN1C2CCC1CC(OC(=O)C(O)c1ccccc1)C2 (centres undefined) ?
30

Next:
Quick one: max response of COC(=O)c1c(C)[nH]c(C)c1C(=O)c1ccccc1Cc1ccccc1 ?
-0.767

Given CCOC(=O)C1=C(C)NC(C)=C(C(=O)OCC)C1c1c(F)c(F)c(F)c(F)c1F , state its recorded max response.
17

I would be grateful if you could share the reported max response for Oc1cc(O)cc(/C=C/c2ccc(O)c(O)c2)c1 .
42.8

Entry under review: COc1ccccc1N1CCN(CCN(C(=O)c2ccc(I)cc2)c2ccccn2)CC1 . Reported max response?
4.76

Look up max response: Cc1c(Nc2ncccc2C(=O)O)cccc1C(F)(F)F
18.5

Could you tell me which max response is on file for CCCCCCCCCCCCCCCCCC(=O)NCC(COP(=O)([O-])OCC[N+](C)(C)C)OCC (centres undefined) ?
4.32

// lookup max response for N#C/C(=C\c1ccc(O)c(O)c1)C(=O)NCc1ccccc1
12.2

Name the reported max response value associated with the compound S=C(S)OC1CC2CC1C1CCCC21 (centres undefined)
22.6

Can you look up the measured max response of Nc1nc2ccc([N+](=O)[O-])cc2s1 for me?
8.79

Suppose we examine the compound CCCCCCCCCCCCCCCC(=O)OC(C)C ; what max response value has been reported?
3.03

====

experiment-description: qHTS for differential inhibitors of proliferation of Plasmodium falciparum line Dd2 (AID 1882);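 note: compound exposure of 72 h on infected erythrocytes; plate controls were DMSO vehicle for no effect and 0.29 µM artemisinin for full effect; nearly all actives have a fitted effect of over 65% in size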
run-conditions: Plasmodium falciparum Dd2 proliferation inhibition; series mostly up to 28.7 µM
Inconclusive results are not listed. Activity calls are given as the source filed them. Calls follow the shape of the dose curve; as a rule, active = well fitted inhibition curve with a large enough effect; inconclusive = small, poorly fitted or top-dose-only effect; inactive = flat fitted curve, though single readings scatter.
Field 'call' accepts active, inactive

Sample answers from the record:
Per the assay record, what outcome was assigned to CCN1/C(=C/C(C)=O)Sc2ccc(OC)cc21 ?
inactive

Each molecule tested received a call. Report the one for N=C(N)SCCc1ccc(CCSC(=N)N)cc1 .
inactive

What is the recorded call for this molecule in the test? NCCSSCCN
inactive

How was Cc1cc(NC(=O)Nc2ccc3c(ccn3C)c2)sn1 classified in this test?
inactive

Consider now this further molecule.
Fill in: this test's call for CN[C@H](CC(C)C)C(=O)N[C@H]1C(=O)N[C@@H](CC(N)=O)C(=O)N[C@H]2C(=O)N[C@H]3C(=O)N[C@H](C(=O)N[C@H](C(=O)O)c4cc(O)cc(O)c4-c4cc3ccc4O)[C@H](O)c3ccc(c(Cl)c3)Oc3cc2cc(c3O[C@@H]2O[C@H](CO)[C@@H](O)[C@H](O)[C@H]2O[C@H]2C[C@](C)(N)[C@H](O)[C@H](C)O2)Oc2ccc(cc2Cl)[C@H]1O is ___
inactive

====

System: Tov-21-G
experiment-description: Primary qHTS to identify gynecologic anti-cancer compounds using libraries of approved drugs and bioactive compounds (AID 1345084); note: nearly all actives have a fitted effect of over 55% in size
run-conditions: Gynecologic cancer cell panel viability, ATPlite luminescence, 48 h; series mostly up to 57.5 µM
Results filed as inconclusive are left out. Active and inactive are the calls of the source. The call rests on the fitted dose curve; in most records, active means well fitted cell-killing curve with a large enough effect; inconclusive means small, poorly fitted or top-dose-only effect, or effect the other way; inactive means flat fitted curve, though single readings scatter.
Can you answer with just one of these options? 1.0 for active, 0.0 for inactive

What was the test verdict on CCCSc1ccc2nc(NC(=O)OC)[nH]c2c1 ?
1.0

// return assay outcome for O=C(Nc1ccc2[nH]ncc2c1)C1CCC1
0.0

Please state the recorded outcome for this compound: CN1[C@@H]2CC[C@H]1CC(OC(=O)C(CO)c1ccccc1)C2 (some centres not stated)
0.0

What did this assay record as the result for O=C1CN(/N=C/c2ccc([N+](=O)[O-])o2)C(=O)N1 ?
0.0

Record request — test call for Cc1[nH]cnc1CN1CCc2c(c3ccccc3n2C)C1=O
0.0

Outcome? [O-][n+]1ccccc1SSc1cccc[n+]1[O-]
1.0

What did the test return for CN(C)c1ccc(N=NS(=O)(=O)O)cc1 ?
0.0

Fill in: this test's call for CC(=O)c1ccc(OCC(=O)N2CCCCC2)cc1 is ___
0.0

Continuing:
What classification did CC(C)(C)c1nnc(NS(=O)(=O)c2ccc(N)cc2)s1 end up with in this test?
0.0

Assay outcome for COc1ccc(/C=C/C(=O)Nc2ccccc2C(=O)O)cc1OC : what was it?
0.0

Which outcome was assigned to CCOC(=O)c1ccccc1O in this test?
0.0

Short answer needed: outcome of this test for Cc1onc(-c2c(F)cccc2Cl)c1C(=O)N[C@@H]1C(=O)N2[C@@H]1SC(C)(C)[C@@H]2C(=O)O ?
0.0

====

System: 3D7
experiment-description: qHTS profiling for inhibitors of Plasmodium falciparum proliferation (AID 504749); note: nearly all actives have a fitted effect of over 60% in size
run-conditions: P. falciparum in erythrocytes, SYBR Green DNA, 72 h; series mostly up to 28.7 µM
Procedure: NIH National Institute of Allergy and Infectious Diseases [NIAID] NIH Chemical Genomics Center [NCGC] […] Because mature erythrocytes lack DNA, only Plasmodium-derived DNA is detected. NCGC Assay Protocol Summary: The SYBR Green viability assay was adapted from a method described previously (Plouffe et al., 2008). […] The following morning, fluorescence intensity at 485(14) nm excitation and 535(25) nm emission wavelengths was measured on an EnVision (Perkin Elmer) plate reader. […]
Inconclusive results are not listed. Activity calls are given as the source filed them. The call rests on the fitted dose curve; in most records, active means well fitted inhibition curve with a large enough effect; inconclusive means small, poorly fitted or top-dose-only effect; inactive means flat fitted curve, though single readings scatter.
Respond using exactly one of the listed classes: True for active, False for inactive

# example entries with known answers
Just curious, what result did CN1[C@@H]2CC[C@H]1CC(OC(c1ccccc1)c1ccccc1)C2 (some centres not stated) get here?
False

Given CC(C(=O)O)c1ccc2c(c1)[nH]c1ccc(Cl)cc12 (configuration not stated) , state the outcome it received in this test.
False

What did this assay record as the result for Cc1ccc(C(=O)c2ccc(CC(=O)O)n2C)cc1 ?
False

Please share the test call associated with Cc1nc2ccccc2n1Cc1ccc(Cl)cc1 .
False

// return assay outcome for CCCCCCCCCCCCCCCC(=O)OC(C)C
False

What call does the record list for CC(=O)[C@]1(O)Cc2c(O)c3c(c(O)c2[C@@H](O[C@H]2C[C@H](N)[C@H](O)[C@H](C)O2)C1)C(=O)c1c(O)cccc1C3=O ?
True

Recorded call for Cc1ccccc1CNc1ncnc2c1ncn2C1OC(CO)C(O)C1O (configuration not stated) ?
False

So what was the verdict on CCCOC(=O)c1ccc(O)cc1 in this test?
False

More entries:
I'd appreciate the recorded outcome for CCOc1ccc2nc(S(N)(=O)=O)sc2c1 from this test.
False

Recorded call for Oc1c(Br)cc(Br)c2cccnc12 ?
False

Called result for CCCSc1ccc2nc(NC(=O)OC)[nH]c2c1
False

Recorded call for CC1OC1P(=O)(O)O (configuration not stated) ?
False

====

Tested on: CP201
experiment-description: qHTS profiling for inhibitors of Plasmodium falciparum proliferation (AID 504749); note: nearly all actives have a fitted effect of over 60% in size
run-conditions: P. falciparum in erythrocytes, SYBR Green DNA, 72 h; series mostly up to 28.7 µM
Inconclusive results are not listed. Calls of active or inactive are those of the source. The call rests on the fitted dose curve; in most records, active means well fitted inhibition curve with a large enough effect; inconclusive means small, poorly fitted or top-dose-only effect; inactive means flat fitted curve, though single readings scatter.
Give your call using only these classes: Y (active), N (inactive)

// return assay outcome for Cc1c(Nc2ncccc2C(=O)O)cccc1C(F)(F)F
N

For CCOc1ccc2nc(S(N)(=O)=O)sc2c1 , what call appears in the results of this test?
N

Recorded test outcome, item O=C(O)[C@H](CC(=O)N1C[C@H]2CCCC[C@H]2C1)Cc1ccccc1
N

New cases:
Tell me the assay call for Nc1ccc(O)c(C(=O)O)c1 please.
N

====

experiment-description: qHTS assay for small molecule disruptors of the mitochondrial membrane potential - 1 hr assay (AID 651754); note: nearly all actives have a fitted effect of over 35% in size; note: potency is the fitted concentration of half-maximal effect
run-conditions: series mostly up to 92.2 µM
Inconclusive results are not listed. Calls of active or inactive are those of the source. Calls follow the shape of the full dose curve.
reported-endpoint: Potency

Worked cases, answers included:
What measured Potency goes with O=C1CN(/N=C/c2ccc([N+](=O)[O-])o2)C(=O)N1 ?
37.6 µM (active)

Please give the measured Potency for this compound: Nc1nc2ccc([N+](=O)[O-])cc2s1
16.8 µM (active)

Which Potency value belongs to N=C1N=C(N)c2cc3ccccc3cc21 ?
6.68 µM (active)

Suppose we examine the compound CN(C)c1ccc(N=NS(=O)(=O)O)cc1 ; what Potency value has been reported?
15 µM (active)

Further cases:
Quick one: Potency for c1cnc2c(c1)ccc1cccnc12 ?
inactive

Look at this compound and give its reported Potency. CN(C)c1ccc(C(=C2C=CC(=[N+](C)C)C=C2)c2ccccc2)cc1
0.75 µM (active)

Please give the measured Potency for this compound: CCCCCCCCCCCCCCCCCC(=O)O
inactive
